B1: tRNA (parent)
chain: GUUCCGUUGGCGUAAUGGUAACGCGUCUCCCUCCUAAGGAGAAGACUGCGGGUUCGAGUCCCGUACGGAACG

variants of: B1; experiment: yeast fitness relative to wild type (ratio to wild type); higher = fitter; tRNA-Arg(CCU), competitive growth, 37 C, YPD
This sample holds only a part of the variants without activity.
The label depends only on yeast fitness: TRUE if it is at least 0.6, FALSE if it is smaller.

GUUUCGUUGACGUAAUGGUAAUGCGUCUCCCUCCUAAGGAGAACACUGCGGGUUCGAGUCCCGUACGGAACG	FALSE
GUUCCGUUGGCGUAAUGGUAGCGCGUCUCCCACCUAAGGAGAAGACUGCGGGUUCGAGUCCCGUACGGAACG	TRUE
GUUCCGUUAGCGUAAUGGUAACGCGUCUCCCUCCUAAGGAGCAGACUGCGGGUUCGAGUCCCGUACGGAACG	TRUE
GUUCCGUUGGCGUAAUGGUAGCGCGUCUCCCUCCUAAGGCGAAGACUGCGGGUUAGAGUCCCGUACGGAACG	FALSE
GUUCCGUUGGUGUAAUGGUAACGCGUCUUCCUCCUAAGGAGAAGACUGCGGGUUCGUGUCUCGUACGGAACG	FALSE

Task item: Say whether GUUCCGCUGGCGUAAUGGUAACGCGUCUCCCUCCUAAGGAGAAGACUGCGGGUUCGAGUCCCGUACUGAACG shows yeast fitness of 0.6 or more.
Reply: TRUE

Task item: Say whether GUACCGUUGGCGUAAUGGUAACGCGUCUCGCUCCUAAGGAGAAGACUGCGGGUUCGAGUCCCGUACGAAACG shows yeast fitness of 0.6 or more.
Reply: FALSE

Task item: Say whether GUUCCGUUGGCGUAAUGGUAACGCGUGUCCCUCCUAAGGAAAAGACUGCGGGUUCGAGUCCCGUACAGAACG shows yeast fitness of 0.6 or more.
Reply: TRUE

Task item: Say whether GUCCGGUUGGCGUAAUGGUAUCGCGUCUCCCUCCUAAGGAGCAGACUGCGGGUUCGAGUCCCGUACGGAACG shows yeast fitness of 0.6 or more.
Reply: FALSE
